Assay: NCI Yeast Anticancer Drug Screen. Data for the cln2 rad14 strain (AID 165);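 also: 0% = growth equal to vehicle treated cultures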
Settings: S. cerevisiae cln2 rad14 strain, at 50.0 µM (retest, dose inferred, filed as 5.0), active compounds read high
Compounds without any hit were thinned out: in the full panel of roughly 79,000, 15% have a hit.
Entry flag: yes (1) if growth inhibition reaches 40%; no (0) if it does not.

>>> df
                                   compound  assigned_class
0  CC12CCC(=O)C=C1CCC1C2CCC2(C)C(c3cnc[nH]3)CCC12 (centres undefined)         yes (1)
1             NC(=S)c1cccc(OCCCOc2ccccc2)c1          no (0)
2              c1ccc2c(CCc3ccncc3)c[nH]c2c1         yes (1)

-- ask Hi team, for CSc1nc2nn(Cc3ccccc3)cc2c(=O)[nH]1 , is the recorded growth inhibition at or above 40%?
-- reply yes (1)

-- ask Hi team, for O=c1[nH]c2c([N+](=O)[O-])cc(Cl)cc2nc1/C=C(\O)c1ccc2ccccc2c1 , is the recorded growth inhibition at or above 40%?
-- reply yes (1)

-- ask Hi team, for Nc1cc(Cl)c(I)cc1Cl , is the recorded growth inhibition at or above 40%?
-- reply yes (1)

-- ask Hi team, for Nc1ccc(O)c(=O)cc1 , is the recorded growth inhibition at or above 40%?
-- reply no (0)

-- ask Hi team, for O=C(O)C(Cc1ccccc1)N=Cc1ccc(O)cc1 (centres undefined) , is the recorded growth inhibition at or above 40%?
-- reply yes (1)

-- ask Hi team, for ClC(Cl)(Cl)C1OCOC(C(Cl)(Cl)Cl)O1 (centres undefined) , is the recorded growth inhibition at or above 40%?
-- reply yes (1)

-- ask Hi team, for CCOC(=O)c1ccc2c3c([nH]c2c1C)-c1ccccc1CC3 , is the recorded growth inhibition at or above 40%?
-- reply yes (1)

-- ask Hi team, for O=C(Cc1nc2ccc([N+](=O)[O-])cc2[nH]c1=O)C(=O)Nc1cc(Cl)c(Cl)cc1Cl , is the recorded growth inhibition at or above 40%?
-- reply no (0)

-- ask Hi team, for Cc1cccc(-c2nnc(-c3cccc(C)c3)o2)c1 , is the recorded growth inhibition at or above 40%?
-- reply no (0)

-- ask Hi team, for O=C(Nc1ccc(Cl)cc1)NS(=O)(=O)c1ccc2c(c1)CCC2 , is the recorded growth inhibition at or above 40%?
-- reply no (0)

-- ask Hi team, for Oc1ccccc1N=CC1CCCCC1 , is the recorded growth inhibition at or above 40%?
-- reply no (0)

-- ask Hi team, for CC(C)(C)c1ccc(-c2nnc(SCc3ccc(Cl)cc3)n2-c2cccc(C(F)(F)F)c2)cc1 , is the recorded growth inhibition at or above 40%?
-- reply no (0)

-- ask Hi team, for O=[N+]([O-])c1ccc(SCc2ccccc2)c2nonc12 , is the recorded growth inhibition at or above 40%?
-- reply yes (1)
